Data origin, for the record: PubChem BioAssay

# procedure-details: Restrictive medium S. cerevisiae growth inhibition, OD615, pilot screen of yeast lifespan reduction project, restrictive growth control (AID 706);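 note: modified DeaD lifespan yeast strain shifted to restrictive glucose medium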
# condition-summary: OD615, 48 h, at 10 µM, stronger effect = higher value
Recorded growth inhibition, one value per entry.
assay-endpoint: growth inhibition (%)

>  <compound>
COC(=O)c1c(N2C(=O)CCC2=O)sc2c1CCCC2

>  <units>
%

>  <value-observed>
0.535

$$$$
>  <compound>
CCCC(=O)C1=C(O)C(C(=O)OC)C(C)(C)CC1=N (stereo unspecified)

>  <units>
%

>  <value-observed>
-3.15

$$$$
>  <compound>
COc1ccccc1OCCC(=O)OCC(=O)NC(=O)NC(C)(C)C

>  <units>
%

>  <value-observed>
-17.1

$$$$
>  <compound>
CCN1CCN(CCNC(=O)c2ccc(CS(=O)(=O)c3c(Cl)cccc3Cl)o2)CC1

>  <units>
%

>  <value-observed>
6.53

$$$$
>  <compound>
COCCN(CCOC)Cc1c(O)ccc2c3c(c(=O)oc12)CCC3

>  <units>
%

>  <value-observed>
7.01

$$$$
>  <compound>
COc1ccc(S(=O)(=O)Cc2ccc(C(=O)N3CCc4ccccc4C3)o2)cc1

>  <units>
%

>  <value-observed>
-5.21

$$$$
